- Measurement Description: Antiproliferative activity against multidrug-resistant P-gp expressing human KBVIN cells by sulforhodamine B assay
- Type: functional
Parameter Measured: GI50

See these solved cases before continuing.
INSERT INTO results (compound, test_result) VALUES
  ('C=C1[C@@H](OC(C)=O)[C@]23C[C@@H]1[C@@H](O)C[C@H]2[C@@]12C4C3C[C@@H]1[C@@]1(C)CC[C@H]2OC1N4CC [DEHYDROLUCIDUSCULINE]', '> 20 µM'),
  ('CCN1C[C@]2(COC)CC[C@H](OC)[C@]34C1[C@@](O)([C@@H](OC)[C@H]23)[C@@]1(O)C[C@H](OC)[C@H]2C[C@@H]4[C@@H]1[C@H]2OC(C)=O', '> 20 µM'),
  ('CCN1C[C@@]2(COC)[C@H]3[C@@H](OC)C=C4[C@H]5[C@@H](OC(=O)c6ccc(OC)cc6)[C@](O)(C[C@H]5[C@@]35C1O[C@@H]2C[C@@H]5OC)[C@@H](OC)[C@@H]4O', '> 20 µM'),
  ('CCN1C(=O)[C@]2(C)CC[C@H](OC)[C@@]34[C@@H]5C[C@H]6[C@H](OC)[C@@H]5[C@@]5(C[C@@H]6OC)OCO[C@@]5([C@@H](O)[C@@H]32)[C@@H]14', '> 20 µM');

Could you now look at the following compound, please?
Briefly, GI50 measured for C=C1[C@H]2C[C@@H]3C4N5C[C@]6(C)CCC[C@@]47[C@@H]6[C@@]5(O)C[C@]3([C@@H]1OC(=O)c1ccccc1)[C@H]7[C@H]2OC(=O)c1ccccc1 : 6.3 µM

---

- Measurement Description: Antiproliferative activity against multidrug-resistant P-gp expressing human KBVIN cells by sulforhodamine B assay
- Format: functional
Parameter Measured: GI50 (µM)
Give your result in µM as a bare value.

INSERT INTO measurements (smiles_notation, parameter_measured, units, test_result) VALUES
  ('C=C1[C@H]2C[C@@H]3C4N5C[C@]6(C)CCC[C@@]47[C@@H]6[C@@H]5C[C@]3([C@@H]1OC(=O)c1ccc(OC)cc1)[C@H]7[C@H]2OC(=O)c1ccc(OC)cc1', 'GI50', 'µM', 5.2);

Briefly, GI50 measured for C=C1[C@H]2C[C@@H]3C4N5C[C@]6(C)CCC[C@@]47[C@@H]6[C@@H]5C[C@]3([C@@H]1OC(=O)c1ccccc1)[C@H]7[C@H]2OC(=O)c1ccccc1 : 7.5

Briefly, GI50 measured for C=C1[C@H]2C[C@@H]3C4N5C[C@]6(C)CCC[C@@]47[C@@H]6[C@@]5(OC(=O)c4ccc(OC)c(OC)c4)C[C@]3([C@@H]1O)[C@H]7[C@H]2OC(=O)c1ccc(OC)c(OC)c1 : 10

Briefly, GI50 measured for CC(=O)O[C@H]1C(=O)[C@@]2(C)[C@H]([C@H](OC(=O)c3ccccc3)[C@]3(O)C[C@H](OC(=O)[C@H](O)[C@@H](NC(=O)c4ccccc4)c4ccccc4)C(C)=C1C3(C)C)[C@]1(OC(C)=O)CO[C@@H]1C[C@@H]2O : 0.95

---

- Measurement Description: Antiproliferative activity against multidrug-resistant P-gp expressing human KBVIN cells by sulforhodamine B assay
- Format: functional
Parameter Measured: GI50

INSERT INTO results (molecule, test_result) VALUES
  ('C=C1[C@H]2C[C@@H]3C4N5C[C@]6(C)CCC[C@@]47[C@@H]6[C@@]5(O)C[C@]3([C@@H]1OC(=O)c1cccc([N+](=O)[O-])c1)[C@H]7[C@H]2OC(=O)c1cccc([N+](=O)[O-])c1', '5.6 µM');

Briefly, GI50 measured for CCN1C[C@]2(COC)[C@H](O)C[C@H](OC)[C@]34C1[C@H]([C@H](OC)[C@H]23)[C@]1(OC(C)=O)[C@H]2[C@@H](OC(=O)c3ccc(OC)cc3)[C@](O)(C[C@H]24)[C@@H](OC)[C@@H]1O : > 20 µM

Briefly, GI50 measured for C=C1[C@H]2C[C@@H]3C4N(C(=O)/C=C/c5ccccc5)C[C@]5(C)CCC[C@@]46[C@@H]5C(=O)C[C@]3([C@@H]1O)[C@H]6[C@H]2O (stereo not given in full) : > 20 µM

Briefly, GI50 measured for C=C1[C@H]2C[C@@H]3C4N5C[C@]6(C)CCC[C@@]47[C@@H]6[C@@]5(O)C[C@]3([C@@H]1OC(=O)/C=C/c1ccccc1)[C@H]7[C@H]2O : > 20 µM

Briefly, GI50 measured for C=C1[C@H]2C[C@@H]3C4N5C[C@]6(C)CCC[C@@]47[C@@H]6[C@@]5(O)C[C@]3([C@@H]1O)[C@H]7[C@H]2OC(=O)c1ccc([N+](=O)[O-])cc1 : 6.4 µM

Briefly, GI50 measured for C=C1[C@H]2C[C@H]3C4N5C[C@]6(C)CCC[C@]47[C@H]([C@H]2OC(=O)c2ccccc2)C3(C[C@]5(OC(=O)c2ccccc2)[C@H]67)[C@@H]1O : 10 µM

Briefly, GI50 measured for COC[C@]12CN(C)C3[C@@H]4[C@H](OC)[C@H]1[C@@]3([C@@H](OC)C[C@H]2OC(C)=O)[C@@H]1C[C@@]2(O)[C@H](OC(=O)c3ccccc3)[C@@H]1[C@]4(OC(C)=O)[C@@H](O)[C@@H]2OC : > 20 µM

---

- Measurement Description: Antiproliferative activity against multidrug-resistant P-gp expressing human KBVIN cells by sulforhodamine B assay
- Format: functional
Parameter Measured: GI50

INSERT INTO results (smiles_notation, test_result) VALUES
  ('CCN1C[C@]2(COC)[C@H](O)C[C@H](OC)[C@@]34[C@@H]5C[C@@]6(O)[C@H](OC(=O)c7ccccc7)[C@@H]5[C@@](OC(C)=O)([C@@H]([C@H](OC)[C@H]23)[C@@H]14)[C@@H](O)[C@@H]6OC', '> 20 µM'),
  ('C=C1[C@H]2C[C@@H]3C4N5C[C@]6(C)CCC[C@@]47[C@@H]6[C@@]5(OC(=O)c4ccc([N+](=O)[O-])cc4)C[C@]3([C@@H]1OC(=O)c1ccc([N+](=O)[O-])cc1)[C@H]7[C@H]2OC(=O)c1ccc([N+](=O)[O-])cc1', '> 20 µM'),
  ('CCN1C[C@]2(COC)CC[C@H](OC)[C@]34C1C([C@H](OC)[C@H]23)[C@]1(OC(C)=O)[C@H]2[C@@H](OC(=O)c3ccc(OC)cc3)[C@](O)(C[C@H]24)[C@@H](OC)[C@@H]1O', '> 20 µM');

Briefly, GI50 measured for CCN1C[C@@]2(COC)[C@H]3[C@@H](OC)[C@H]4C1[C@]3([C@@H](OC)C[C@H]2OC(C)=O)[C@@H]1C[C@@]2(O)[C@H](OC(=O)c3ccc(OC)cc3)[C@@H]1[C@]4(OC(C)=O)[C@@H](OC(C)=O)[C@@H]2OC : > 20 µM

Briefly, GI50 measured for C=C1[C@H]2C[C@@H]3C4N5C[C@]6(C)CCC[C@@]47[C@@H]6[C@@]5(O)C[C@]3([C@@H]1OC(=O)c1cccnc1)[C@H]7[C@H]2O : > 20 µM

Briefly, GI50 measured for C=C1[C@H]2C[C@@]3(C4C[C@@H]5C6(C)CCC7O[C@H]6N(CC)C4C75[C@@H]3C[C@@H]2OC(C)=O)[C@@H]1OC(C)=O : > 20 µM

Briefly, GI50 measured for C=C1[C@H]2C[C@@H]3C4N5C[C@]6(C)CCC[C@@]47[C@@H]6[C@@]5(O)C[C@]3([C@@H]1OC(=O)c1ccc(OC)c(OC)c1)[C@H]7[C@H]2O : > 20 µM

Briefly, GI50 measured for CCN1C[C@]2(COC)[C@H](O)C[C@H](O)[C@]34C1[C@@](O)([C@@H](OC)[C@H]23)[C@@]1(O)C[C@H](OC)[C@H]2C[C@@H]4[C@@H]1[C@H]2OC(=O)c1ccccc1 : > 20 µM

Briefly, GI50 measured for C=C1[C@H]2C[C@@H]3C4N5C[C@]6(C)CCC[C@@]47[C@@H]6[C@@]5(O)C[C@]3([C@@H]1OC(C)=O)[C@H]7[C@H]2OC(C)=O : > 20 µM

---

- Measurement Description: Antiproliferative activity against multidrug-resistant P-gp expressing human KBVIN cells by sulforhodamine B assay
- Format: functional
Parameter Measured: GI50

INSERT INTO results (compound, test_result) VALUES
  ('C=C1[C@@H](OC(C)=O)[C@]23C[C@@H]1[C@@H](OC(C)=O)C[C@H]2[C@@]12C4C3C[C@@H]1[C@@](C)(CC[C@H]2OC(C)=O)CN4CC', '> 20 µM'),
  ('C=C1[C@H]2C[C@@]3(C4C[C@@H]5C6(C)CCC7O[C@H]6N(CC)C4C75[C@@H]3C[C@@H]2O)[C@@H]1O', '> 20 µM'),
  ('C=C1[C@H]2C[C@@H]3C4N(C(C)=O)C[C@]5(C)CCC[C@@]46[C@@H]5C(=O)C[C@]3([C@@H]1OC(C)=O)[C@H]6[C@H]2OC(C)=O (stereo not given in full)', '> 20 µM');

Briefly, GI50 measured for CCN1C[C@]2(C)CC[C@H](OC)[C@@]34[C@@H]5C[C@H]6[C@H](OC)[C@@H]5[C@@]5(C[C@@H]6OC)OCO[C@@]5([C@@H](OC(=O)c5cccc(C(F)(F)F)c5)[C@H]23)[C@@H]14 : 10 µM

Briefly, GI50 measured for C=C1[C@H]2C[C@H]3C4N5C[C@]6(C)CCC[C@]47[C@H]([C@H]2O)C3(C[C@]5(O)[C@H]67)[C@@H]1O : > 20 µM
